Would you mind telling me the reported OD450 of each entry?
# System tested: T1, monkey CD22 protein (ACROBiosystems, catalog number SI2-R52Ha) (monkey, UniProt F6W485 20-688)
# T1 construct: commercial protein; also called monkey CD22-ECD; monkey CD22-ECD-His
# T1 sequence: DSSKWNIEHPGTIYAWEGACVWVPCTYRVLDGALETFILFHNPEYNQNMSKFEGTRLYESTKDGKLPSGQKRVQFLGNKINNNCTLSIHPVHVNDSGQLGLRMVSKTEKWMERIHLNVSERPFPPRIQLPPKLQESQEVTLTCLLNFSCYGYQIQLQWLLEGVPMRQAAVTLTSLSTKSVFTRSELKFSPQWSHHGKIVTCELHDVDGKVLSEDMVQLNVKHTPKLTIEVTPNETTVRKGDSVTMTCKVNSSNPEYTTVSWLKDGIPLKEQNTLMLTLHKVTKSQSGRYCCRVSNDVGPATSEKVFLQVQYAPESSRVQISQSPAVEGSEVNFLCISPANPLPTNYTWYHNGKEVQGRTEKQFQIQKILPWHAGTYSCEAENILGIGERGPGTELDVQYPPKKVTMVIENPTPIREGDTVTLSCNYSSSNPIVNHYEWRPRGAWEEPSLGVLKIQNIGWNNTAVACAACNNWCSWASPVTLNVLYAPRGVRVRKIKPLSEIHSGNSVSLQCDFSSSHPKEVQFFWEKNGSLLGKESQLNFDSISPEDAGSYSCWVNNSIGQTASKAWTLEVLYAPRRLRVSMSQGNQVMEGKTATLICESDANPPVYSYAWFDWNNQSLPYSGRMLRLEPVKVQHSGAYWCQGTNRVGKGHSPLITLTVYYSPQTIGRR
# Experimental protocol: ELISA, coated monkey CD22 protein, antibody 0.001 nM
Numbers only; they are read as OD450.

Record summary for F2.205.9 (antibody, human IgG1, lambda, V domains shown, human-murine chimeric IgG1 lambda; VL name legible) VH: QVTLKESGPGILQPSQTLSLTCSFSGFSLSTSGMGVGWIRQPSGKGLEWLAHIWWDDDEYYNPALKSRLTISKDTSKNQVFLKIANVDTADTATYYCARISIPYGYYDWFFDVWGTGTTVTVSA VL: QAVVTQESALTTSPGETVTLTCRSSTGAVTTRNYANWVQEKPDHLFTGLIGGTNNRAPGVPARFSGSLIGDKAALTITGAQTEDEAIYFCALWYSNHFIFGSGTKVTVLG : reported OD450 = 0.63

Record summary for HA22-hIgG1 (antibody, V domains shown) VH: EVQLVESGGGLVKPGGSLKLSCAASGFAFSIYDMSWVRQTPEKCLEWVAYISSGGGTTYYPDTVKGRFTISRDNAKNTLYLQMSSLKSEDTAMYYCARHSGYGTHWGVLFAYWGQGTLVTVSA VL: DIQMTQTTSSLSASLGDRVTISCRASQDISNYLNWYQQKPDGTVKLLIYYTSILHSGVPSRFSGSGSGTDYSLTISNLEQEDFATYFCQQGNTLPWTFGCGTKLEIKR : reported OD450 = 0.47
